src = patent US10099993B2

experimentalSystem: UniProt P31422
Sequence (P31422 23-879): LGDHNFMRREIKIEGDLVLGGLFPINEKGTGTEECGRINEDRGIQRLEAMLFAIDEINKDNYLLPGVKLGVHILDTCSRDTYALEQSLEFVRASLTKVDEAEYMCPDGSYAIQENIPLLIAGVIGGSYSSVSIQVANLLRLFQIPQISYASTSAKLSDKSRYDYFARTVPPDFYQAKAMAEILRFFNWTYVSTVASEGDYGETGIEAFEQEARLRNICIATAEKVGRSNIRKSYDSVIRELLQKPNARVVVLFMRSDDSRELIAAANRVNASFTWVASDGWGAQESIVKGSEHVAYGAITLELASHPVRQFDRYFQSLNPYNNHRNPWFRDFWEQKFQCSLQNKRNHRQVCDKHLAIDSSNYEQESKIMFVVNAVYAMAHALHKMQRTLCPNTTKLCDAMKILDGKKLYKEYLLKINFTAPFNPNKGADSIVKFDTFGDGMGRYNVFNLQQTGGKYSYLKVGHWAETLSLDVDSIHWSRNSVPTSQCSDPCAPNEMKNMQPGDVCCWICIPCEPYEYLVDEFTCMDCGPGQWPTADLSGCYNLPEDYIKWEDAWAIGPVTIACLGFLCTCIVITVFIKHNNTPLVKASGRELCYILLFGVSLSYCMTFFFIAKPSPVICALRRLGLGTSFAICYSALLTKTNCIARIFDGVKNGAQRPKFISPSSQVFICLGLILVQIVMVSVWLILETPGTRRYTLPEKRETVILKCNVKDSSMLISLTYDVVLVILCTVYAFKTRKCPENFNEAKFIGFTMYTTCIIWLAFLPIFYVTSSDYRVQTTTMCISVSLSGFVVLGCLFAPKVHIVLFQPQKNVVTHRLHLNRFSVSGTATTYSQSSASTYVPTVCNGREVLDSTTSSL
assayNotes: mGlu3 GIRK thallium flux assay;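 further: kinetic fluorescence slope read shortly after thallium plus agonist addition, scaled between vehicle and maximal agonist control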
conditions: read-out: mGlu3 PAM Max
experimentalEndpoint: Emax (%)
Entry rule: numbers only, all in %.

Example cases with answers are listed next.
Cc1c(OCc2cccc(-c3cccc(S(=O)(=O)O)c3)c2)ccc(C(=O)CC(C)(C)C)c1O; 103
Cc1c(OCc2cccc(-c3cccc(C(=O)NS(C)(=O)=O)c3)c2)ccc(C(=O)CC(C)(C)C)c1O; 103
COc1ccc(C(=O)NCC(C)C)cc1OCCCCOc1ccc(C(=O)CC(C)(C)C)c(O)c1C; 31.7
Cc1c(OCCCCOc2ccccn2)ccc(C(=O)CC(C)C)c1O; 22.4
CCCC(=O)c1ccc(OCc2cccc(-c3cccc(C(=O)O)c3)c2)c(C)c1O; 81

Q: Observed Emax on UniProt P31422 for Cc1c(OCc2cccc(-c3cncc(C(=O)O)c3)c2)ccc(C(=O)CC(C)(C)C)c1O , please.
Result: 102
